The measurements presented in this section are drawn from ChEMBL document CHEMBL4706708.

# experimental-details: Thermodynamic solubility of compound in water measured after 15 mins RP-HPLC analysis
# Format: physicochemical
# measurement-parameters: read-out: Therm_solubility
Measured solubility thermodynamic at 0.25 h of individual entries
value-type: solubility thermodynamic at 0.25 h (µg/mL)

>>> assay_result("Nc1c(C(=O)Nc2cccc3ccccc23)sc2nc3c(cc12)COCC3")
4
>>> assay_result("CC(=O)c1cc2c(N)c(C(=O)Nc3cccc4cccnc34)sc2nc1C")
3
>>> assay_result("Nc1c(C(=O)Nc2ccc3c(c2)OCCO3)sc2nc3c(cc12)C(=O)CCC3")
0.32
>>> assay_result("COc1cccc(NC(=O)c2sc3nc4c(cc3c2N)CN(Cc2ccccc2)CC4)c1C")
1.89
>>> assay_result("Cc1c(Cl)cccc1NC(=O)c1sc2nc3c(cc2c1N)CN(Cc1ccccc1)CC3")
0.77
>>> assay_result("Cc1ccccc1NC(=O)c1sc2nc3c(cc2c1N)COCC3")
7.52
>>> assay_result("Nc1c(C(=O)Nc2ccc3c(c2)OCCO3)sc2nc3c(cc12)CN(Cc1ccccc1)CC3")
0.7
>>> assay_result("CC(=O)c1cc2c(N)c(C(=O)Nc3ccccc3C)sc2nc1C")
1.49
>>> assay_result("Cc1ccccc1NC(=O)c1sc2nc3c(cc2c1N)CN(Cc1ccccc1)CC3")
0.26
>>> assay_result("Nc1c(C(=O)Nc2ccccc2Cl)sc2nc3c(cc12)CN(Cc1ccccc1)CC3")
1.06

* * *

# System: HCT-116
# experimental-details: Antiproliferative activity against human HCT-116 cells assessed as cell growth at 1 uM measured after 3 days by [3H]-thymidine incorporation assay relative to control
# Type: functional
# measurement-parameters: HCT-116, 72 h, time 3 day, read-out: Activity
value-type: growth at 1 µM

>>> assay_result("Cc1nc2sc(C(=O)Nc3cncc4ccccc34)c(N)c2cc1C(C)O (stereo not given)")
"109%"
>>> assay_result("Nc1c(C(=O)Nc2cccc3c2OCCO3)sc2nc3c(cc12)C(=O)CCC3")
"18.6%"
>>> assay_result("COc1ccc(NC(=O)c2sc3nc(C)c(C(C)O)cc3c2N)cc1 (stereo not given)")
"97.5%"
>>> assay_result("Cc1nc2sc(C(=O)Nc3cccc4cccnc34)c(N)c2cc1C(C)O (stereo not given)")
"110%"
>>> assay_result("Nc1c(C(=O)Nc2cccc3cnccc23)sc2nc3c(cc12)C(=O)CCC3")
"103%"

* * *

Measured pIC50 of individual entries
# Test system: HCT-116
# experimental-details: Antiproliferative activity against human HCT-116 cells assessed as cell growth inhibition measured after 3 days by [3H]-thymidine incorporation assay
# Type: functional, cell-based
pIC50: −log10 of the molar value.
value-type: pIC50

>>> assay_result("Cc1nc2sc(C(=O)Nc3cccc4ccccc34)c(N)c2cc1C(C)O (stereo not given)")
6.77
>>> assay_result("CC(=O)c1cc2c(N)c(C(=O)Nc3cccc(C)c3C)sc2nc1C")
6.37
>>> assay_result("CC(=O)c1cc2c(N)c(C(=O)Nc3cccc(Cl)c3C)sc2nc1C")
6.24
>>> assay_result("Cc1cccc(NC(=O)c2sc3nc4c(cc3c2N)CN(Cc2ccccc2)CC4)c1C")
6.70
>>> assay_result("CC(=O)c1cc2c(N)c(C(=O)Nc3cccc(Br)c3C)sc2nc1C")
6.74

* * *

# Test system: HCT-116
# experimental-details: Antiproliferative activity against human HCT-116 cells assessed as cell growth at 1 uM measured after 3 days by [3H]-thymidine incorporation assay relative to control
# Format: functional
# measurement-parameters: HCT-116, 72 h, time 3 day, read-out: Activity
value-type: growth at 1 µM (%)

>>> assay_result("CC(=O)c1cc2c(N)c(C(=O)Nc3ccccc3)sc2nc1C")
109
>>> assay_result("CC(=O)c1cc2c(N)c(C(=O)Nc3ccncc3)sc2nc1C")
103
>>> assay_result("Nc1c(C(=O)Nc2ccnc3ccccc23)sc2nc3c(cc12)C(=O)CCC3")
101
>>> assay_result("CC(=O)c1cc2c(N)c(C(=O)Nc3cccc(Br)c3C)sc2nc1C")
4
>>> assay_result("Nc1c(C(=O)Nc2cccc3ccncc23)sc2nc3c(cc12)C(=O)CCC3")
98.1
>>> assay_result("CC(=O)c1cc2c(N)c(C(=O)Nc3ccnc4ccccc34)sc2nc1C")
102
>>> assay_result("Cc1nc2sc(C(=O)Nc3ccncc3)c(N)c2cc1C(C)O (configuration not stated)")
111
>>> assay_result("COc1cccc(NC(=O)c2sc3nc(C)c(C(C)=O)cc3c2N)c1")
96.5
>>> assay_result("Cc1nc2sc(C(=O)Nc3cccc4c3OCCO4)c(N)c2cc1C(C)O (configuration not stated)")
58.4
>>> assay_result("Nc1c(C(=O)Nc2ccnc3ccccc23)sc2nc3c(cc12)CN(Cc1ccccc1)CC3")
82.8
>>> assay_result("CC(=O)c1cc2c(N)c(C(=O)Nc3cccc(Cl)c3C)sc2nc1C")
10
>>> assay_result("Nc1c(C(=O)Nc2cccc3ncccc23)sc2nc3c(cc12)CN(Cc1ccccc1)CC3")
104
>>> assay_result("CC(=O)c1cc2c(N)c(C(=O)Nc3cccc4cccnc34)sc2nc1C")
97
>>> assay_result("Nc1c(C(=O)Nc2ccc3c(c2)OCCO3)sc2nc3c(cc12)CN(Cc1ccccc1)CC3")
83.2
>>> assay_result("CC(=O)c1cc2c(N)c(C(=O)Nc3cccc(Cl)c3)sc2nc1C")
101
>>> assay_result("CC(=O)c1cc2c(N)c(C(=O)Nc3ccccc3Cl)sc2nc1C")
87.3
>>> assay_result("Nc1c(C(=O)Nc2cccc(Cl)c2)sc2nc3c(cc12)CN(Cc1ccccc1)CC3")
89.9
>>> assay_result("CC(=O)c1cc2c(N)c(C(=O)Nc3ccc4c(c3)OCCO4)sc2nc1C")
104
>>> assay_result("CN1CCc2nc3sc(C(=O)Nc4cccc5ccccc45)c(N)c3cc2C1")
93.5
>>> assay_result("Nc1c(C(=O)Nc2ccncc2)sc2nc3c(cc12)C(=O)CCC3")
110
>>> assay_result("Cc1ccccc1NC(=O)c1sc2nc3c(cc2c1N)COCC3")
101
>>> assay_result("Cc1nc2sc(C(=O)Nc3cccc(Cl)c3C)c(N)c2cc1C(C)O (configuration not stated)")
2.2

* * *

Measured pIC50 of individual entries
# System: HCT-116
# experimental-details: Antiproliferative activity against human HCT-116 cells assessed as cell growth inhibition measured after 3 days by [3H]-thymidine incorporation assay
# Assay type: functional, cell-based
pIC50: −log10 of the molar value.
value-type: pIC50

>>> assay_result("Nc1c(C(=O)Nc2cccc3ccccc23)sc2nc3c(cc12)CN(Cc1ccccc1)CC3")
6.19
>>> assay_result("Cc1c(Cl)cccc1NC(=O)c1sc2nc3c(cc2c1N)CN(Cc1ccccc1)CC3")
6.71
>>> assay_result("CC(=O)c1cc2c(N)c(C(=O)Nc3cccc4ccccc34)sc2nc1C")
6.23
>>> assay_result("Cc1c(Br)cccc1NC(=O)c1sc2nc3c(cc2c1N)CN(Cc1ccccc1)CC3")
6.82
>>> assay_result("Cc1nc2sc(C(=O)Nc3cccc(Cl)c3C)c(N)c2cc1C(C)O (stereo unspecified)")
7.14

* * *

# Test system: MDA-MB-231
# experimental-details: Antiproliferative activity against human MDA-MB-231 cells assessed as cell growth at 1 uM measured after 3 days by [3H]-thymidine incorporation assay relative to control
# Type: functional
# measurement-parameters: MDA-MB-231, 72 h, time 3 day, read-out: Activity
Measured growth at 1 µM of individual entries
value-type: growth at 1 µM (%)

>>> assay_result("Nc1c(C(=O)Nc2cccc3ncccc23)sc2nc3c(cc12)C(=O)CCC3")
96.9
>>> assay_result("Cc1nc2sc(C(=O)Nc3cccc4c3OCCO4)c(N)c2cc1C(C)O (stereo not given)")
62.3
>>> assay_result("Nc1c(C(=O)Nc2cccc3c2OCCO3)sc2nc3c(cc12)CN(Cc1ccccc1)CC3")
89.3
>>> assay_result("Cc1nc2sc(C(=O)Nc3cccc4ccncc34)c(N)c2cc1C(C)O (stereo not given)")
94.6
>>> assay_result("Nc1c(C(=O)Nc2ccccc2)sc2nc3c(cc12)CNCC3")
89.7
>>> assay_result("Nc1c(C(=O)Nc2ccc3c(c2)OCCO3)sc2nc3c(cc12)CN(Cc1ccccc1)CC3")
94.9
>>> assay_result("Nc1c(C(=O)Nc2cccc3cccnc23)sc2nc3c(cc12)C(=O)CCC3")
99.2
>>> assay_result("COc1ccc(NC(=O)c2sc3nc4c(cc3c2N)CN(Cc2ccccc2)CC4)cc1")
94.1
>>> assay_result("CN1CCc2nc3sc(C(=O)Nc4cccc5ccccc45)c(N)c3cc2C1")
89
>>> assay_result("Cc1ccccc1NC(=O)c1sc2nc(C)c(C(C)O)cc2c1N (stereo not given)")
97.9
